The origin of these recorded values is patent US12617794B2.

Assay: Preliminary (estimated) solubility study of TPA023B Phosphate Form A (30.3, Example 34)
Format: physicochemical
Conditions: acetone, organic solvent or mixture, thermodynamic from solid, Acetone; estimated by visual observation; read-out: Solubility
RECORDED ENDPOINT: solubility (µg/mL)
Provide only the numeric value, understood in µg/mL.

Value lookup for solubility; key = CC(C)(O)c1cnn2c(-c3ccc(F)c(-c4c(F)cccc4C#N)c3)cnc2n1 [Phosphate Polymorphic Form A]
7000

* * *

Experiment: Preliminary (estimated) solubility study of TPA023B Phosphate Form A (30.3, Example 34)
Type: physicochemical
Conditions: MTBE, organic solvent or mixture, thermodynamic from solid, MTBE; estimated by visual observation; read-out: Solubility
RECORDED ENDPOINT: solubility

Value lookup for solubility; key = CC(C)(O)c1cnn2c(-c3ccc(F)c(-c4c(F)cccc4C#N)c3)cnc2n1 [Phosphate Polymorphic Form A]
< 2000 µg/mL

* * *

Test: Preliminary (estimated) solubility study of TPA023B Phosphate Form A (30.3, Example 34)
Format: physicochemical
Settings: 2-Me THF, organic solvent or mixture, thermodynamic from solid, 2-Me THF; estimated by visual observation; read-out: Solubility
Method: Then the mixture was agitated in a shaker block for at least 30 mins. Additional solvent was added in a stepwise manner until all solids were dissolved. The dissolution was checked by visual observation and the amount of solvent required to dissolve all the solids was recorded.
RECORDED ENDPOINT: solubility (mg/mL)
Provide only the numeric value, understood in mg/mL.

Value lookup for solubility; key = CC(C)(O)c1cnn2c(-c3ccc(F)c(-c4c(F)cccc4C#N)c3)cnc2n1 [Phosphate Polymorphic Form A]
20

* * *

Experiment: Preliminary (estimated) solubility study of TPA023B Phosphate Form A (30.3, Example 34)
Assay type: physicochemical
Details: heptane, organic solvent or mixture, thermodynamic from solid, Heptane; estimated by visual observation; read-out: Solubility
RECORDED ENDPOINT: solubility

Value lookup for solubility; key = CC(C)(O)c1cnn2c(-c3ccc(F)c(-c4c(F)cccc4C#N)c3)cnc2n1 [Phosphate Polymorphic Form A]
< 2000 µg/mL

* * *

Assay: Preliminary (estimated) solubility study of TPA023B Phosphate Form A (30.3, Example 34)
Assay type: physicochemical
Conditions: IPA, organic solvent or mixture, thermodynamic from solid, IPA; estimated by visual observation; read-out: Solubility
RECORDED ENDPOINT: solubility (µg/mL)
Provide only the numeric value, understood in µg/mL.

Value lookup for solubility; key = CC(C)(O)c1cnn2c(-c3ccc(F)c(-c4c(F)cccc4C#N)c3)cnc2n1 [Phosphate Polymorphic Form A]
2500

* * *

Assay: Solubility in aqueous buffers, SGF, FaSSIF and FeSSIF (Example 15)
Format: physicochemical
Conditions: citrate buffer, 20 °C, pH 3, aqueous buffer, thermodynamic from solid, pH 3.0 citrate buffer (100 mM); ~20-25° C., ~24 hours; LOQ: 0.1 μg/mL; read-out: Measured Conc.
RECORDED ENDPOINT: solubility thermodynamic
Please append the unit to your numeric answer.

Value lookup for solubility thermodynamic; key = CC(C)(O)c1cnn2c(-c3ccc(F)c(-c4c(F)cccc4C#N)c3)cnc2n1 [Phosphate Polymorphic Form A]
0.16 µg/mL

* * *

Assay: Solubility in aqueous buffers, SGF, FaSSIF and FeSSIF (Example 15)
Format: physicochemical
Conditions: fasted-state simulated intestinal fluid (FaSSIF), 20 °C, fassif, thermodynamic from solid, FaSSIF; ~20-25° C., ~24 hours; read-out: Measured Conc.
RECORDED ENDPOINT: solubility thermodynamic (µg/mL)
Provide only the numeric value, understood in µg/mL.

Value lookup for solubility thermodynamic; key = CC(C)(O)c1cnn2c(-c3ccc(F)c(-c4c(F)cccc4C#N)c3)cnc2n1 [Free Base Polymorphic Form A]
2.11
